FYI, the data here is from patent US20090227619A1.

Test system: Lewis lung cancer;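 note: mice implanted subcutaneously in the axilla with Lewis lung tumor cells, treated starting the following day, killed roughly three weeks after implantation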
measurementSetup: Lewis lung cancer; Dosage 100, ip × 10qd; first time
measurementLabel: Body weight of the animals, beginning, First time
Include the unit right after the number.

Previously resolved entries follow.
CCOC(=O)c1cc2c3ccccc3n(CC)c2cn1 [Compound 31, ethyl 9-ethyl-β-carboline-3-carboxylate] : 20.5 g
O=C(O)c1cc2c3ccccc3n(CCCc3ccccc3)c2cn1 : 19.8 g

Short answer for COC(=O)c1cc2c([nH]c3ccccc32)c(-c2ccc(OC)cc2)n1 : Body weight of the animals, beginning, First time was 20.3 g

----------
Test system: Hela
experimentDescription: In vitro cytotoxicity, IC50 by MTT method, Hela
Assay type: cell-based
measurementSetup: Homo sapiens; Hela cell strain; read-out: IC50 Hela
A collection of molecules and their measured IC50
Number only, in µM; omit the unit.

Previously resolved entries follow.
Cc1nc(C(=O)O)cc2c3ccccc3n(CCCc3ccccc3)c12 [Compound 65] : 220
Cc1nc(C(=O)O)cc2c3ccccc3n(Cc3ccccc3)c12 [Compound 64] : 370
CC(=O)COc1cc2c3ccccc3n(Cc3ccccc3)c2cn1 [Compound 43, 9-benzyl-3-acetylmethoxy-β-carboline] : 500

Continue with the molecule presented below.
Short answer for CCOC(=O)c1cc2c3ccccc3n(C)c2cn1 [Compound 30, ethyl 9-methyl-β-carboline-3-carboxylate] : IC50 was 180
